Recorded values, source paper PMC4552634.

Entries and their % Inhibition
Test system: P. falciparum stage V gametocytes
Parameters: BacTiter-Glo ATP luminescence viability of purified stage V gametocytes in 384-well plates, per cent inhibition versus DMSO
conditions-used: 48 h, 5 µM; inhibitor
About 3,200 (25%) of roughly 13,000 compounds showed an effect of 50% or more. The list shows a part of the results.
property-label: % Inhibition (%)

- CCOc1cc(CC)ccc1C1CCN(CCCCNC(=O)c2ccc(NC(=O)c3ccc(Cl)cc3)cc2)CC1: 61.4
- CC(=O)Oc1cc(C)ccc1C1CCN(CCCCNC(=O)c2ccc(NC(=O)c3ccc(Cl)cc3)cc2)CC1: -17.17
- CCc1ccc(C2CCN(CCCCNC(=O)c3ccc(NC(=O)c4ccc(Cl)cc4)cc3)CC2)c(OCC(=O)OC)c1: 40.9
- CCOc1cc(CC)ccc1C1CCN(CCCCNC(=O)c2ccc(NC(=O)c3ccc(C#N)cc3)cc2)CC1: 87.14
